- TARGET: T1, amylin receptor of rat nucleus accumbens membranes (rat)
- T1 chain 1: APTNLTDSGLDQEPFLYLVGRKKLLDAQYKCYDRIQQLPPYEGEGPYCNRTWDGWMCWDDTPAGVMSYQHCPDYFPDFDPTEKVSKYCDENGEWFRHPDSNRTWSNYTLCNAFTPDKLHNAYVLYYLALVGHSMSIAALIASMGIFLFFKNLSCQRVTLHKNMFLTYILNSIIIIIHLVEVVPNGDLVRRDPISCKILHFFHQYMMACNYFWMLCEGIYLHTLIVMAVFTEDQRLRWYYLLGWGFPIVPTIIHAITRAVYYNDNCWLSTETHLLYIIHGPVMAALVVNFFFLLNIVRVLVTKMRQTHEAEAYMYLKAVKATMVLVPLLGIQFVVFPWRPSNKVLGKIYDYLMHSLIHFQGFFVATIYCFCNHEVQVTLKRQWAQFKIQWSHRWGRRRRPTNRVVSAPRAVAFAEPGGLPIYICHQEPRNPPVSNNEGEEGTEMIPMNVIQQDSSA
- T1 chain 2: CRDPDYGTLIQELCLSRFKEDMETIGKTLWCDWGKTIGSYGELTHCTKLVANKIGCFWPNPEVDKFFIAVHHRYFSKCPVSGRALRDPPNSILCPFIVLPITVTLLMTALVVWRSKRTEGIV
- PROCEDURE_DETAILS: competition with 125I-rat amylin, rat nucleus accumbens membranes
pIC50: −log10 of the molar value. Ends that are not written are not given here. mPEG40KD = methoxy-PEG of 40 kDa
TEST_READOUT: pIC50

Reference set (3 entries):
CNTATCATQRLANFLVHSSK(mPEG 40 kDa)NFGPILPPTNVGSNTY-NH2 (ends and bridges not checked, also called Cmpd 76) [[K^21(mPEG40KD)]-Cmpd 59]; 6.88
CNTATCATQRLANFLVRSSK(mPEG 40 kDa)NLGPVLPPTNVGSNTY-NH2 (ends and bridges not checked, also called Cmpd 70) [[K^21(mPEG40KD)]-Cmpd 52]; 6.95
KCNTATCATQRLANFLVRSSNNLGPVLPPTK(mPEG40KD)VGSNTY-NH2 (ends and bridges not checked, also called Cmpd 73) [[K^31(mPEG40KD)]-Cmpd 55]; 7.07

1: CNTATCATQRLANFLVHSSNNFGPILPPTK(mPEG40KD)VGSNTY-NH2 (ends and bridges not checked, also called Cmpd 78) [[K^31(mPEG40KD)]-Cmpd 61]
2: KCNTATCATQRLANFLVRSSK(mPEG 40 kDa)NLGPVLPPTNVGSNTY-NH2 (ends and bridges not checked, also called Cmpd 69) [[K^21(mPEG40KD)]-Cmpd 51]
In terms of reported pIC50, does 1 or 2 have the smaller number? Indicate which entry you chose by stating its label. 2
